Measured pIC50, listed per entry.
target: Tyrosine-protein phosphatase non-receptor type 1 (Homo sapiens); assay: Inhibition of human recombinant PTP1B
Sequence (P18031 whole entry): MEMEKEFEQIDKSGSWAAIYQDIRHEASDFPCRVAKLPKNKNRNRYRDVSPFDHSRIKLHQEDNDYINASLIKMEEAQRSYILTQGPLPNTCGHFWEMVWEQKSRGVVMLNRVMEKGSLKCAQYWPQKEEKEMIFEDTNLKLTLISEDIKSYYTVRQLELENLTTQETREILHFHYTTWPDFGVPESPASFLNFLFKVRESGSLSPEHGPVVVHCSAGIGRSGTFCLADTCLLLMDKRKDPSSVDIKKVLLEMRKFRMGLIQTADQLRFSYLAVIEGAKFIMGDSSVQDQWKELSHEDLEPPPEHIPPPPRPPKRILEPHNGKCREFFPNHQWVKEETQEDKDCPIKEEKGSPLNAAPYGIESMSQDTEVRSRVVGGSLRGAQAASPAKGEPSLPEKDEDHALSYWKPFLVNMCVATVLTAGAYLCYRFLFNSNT
pIC50: −log10 of the molar value.

- COMPOUND: "CCCCCCCCCCCCCCCC(=O)C1=C(O)[C@@H](CO)OC1=O"
  SIGN QUALIFIER: "="
  pIC50: 5.33
- COMPOUND: "CC1(C)CC(=O)c2cc([C@@H]3CC(=O)c4c(O)cc(O)cc4O3)cc(O)c2O1"
  SIGN QUALIFIER: "<"
  pIC50: 4.22
- COMPOUND: "CC1(C)C=Cc2cc([C@@H]3CC(=O)c4c(O)cc(O)cc4O3)c3c(c2O1)OC(C)(C)C=C3"
  SIGN QUALIFIER: "<"
  pIC50: 4.22
- COMPOUND: "CC(C)=CCc1c([C@@H]2CC(=O)c3c(O)cc(O)cc3O2)cc(O)c2c1C=CC(C)(C)O2"
  SIGN QUALIFIER: "="
  pIC50: 4.86
- COMPOUND: "CC(C)=CCc1c([C@@H]2CC(=O)c3c(O)cc(O)cc3O2)cc2c(c1O)OC(C)(C)C(O)C2O (some centres undefined)"
  SIGN QUALIFIER: "="
  pIC50: 4.74
- COMPOUND: "COc1cc([C@@H]2CC(=O)c3c(O)cc(O)cc3O2)cc2c1OC(C)(C)C(O)C2 (some centres undefined)"
  SIGN QUALIFIER: "="
  pIC50: 4.74
- COMPOUND: "CC1(C)Oc2c(O)cc([C@@H]3CC(=O)c4ccc(O)cc4O3)cc2CC1O (some centres undefined)"
  SIGN QUALIFIER: "<"
  pIC50: 4.22
- COMPOUND: "C=C(C)/C=C/c1cc([C@@H]2CC(=O)c3c(O)cc(O)cc3O2)cc(CC=C(C)C)c1OC [BURTTINONEDEHYDRATE]"
  SIGN QUALIFIER: "="
  pIC50: 4.67
- COMPOUND: "CC1(CO)C=Cc2cc([C@@H]3CC(=O)c4c(O)cc(O)cc4O3)cc(O)c2O1 (some centres undefined)"
  SIGN QUALIFIER: "<"
  pIC50: 4.22

====

molecular target: Tyrosine-protein phosphatase non-receptor type 1 (Homo sapiens); experiment: Inhibition of human recombinant PTP1B
pIC50: −log10 of the molar value.
Catalogue of pIC50 readings, one per entry.

- MOLECULE: "CC1(C)Oc2c(O)cc([C@@H]3CC(=O)c4c(O)cc(O)cc4O3)cc2C[C@@H]1O"
  SIGN QUALIFIER: "<"
  pIC50: 4.22
- MOLECULE: "CC(C)=CCc1cc([C@@H]2CC(=O)c3c(O)cc(O)cc3O2)cc2c1OC(C)(C)C(O)C2 (stereo partly drawn)"
  SIGN QUALIFIER: "="
  pIC50: 4.83
- MOLECULE: "CC1(C)Oc2ccc([C@@H]3CC(=O)c4c(O)cc(O)cc4O3)cc2C(O)C1O (stereo partly drawn)"
  SIGN QUALIFIER: "<"
  pIC50: 4.22
- MOLECULE: "CC1(C)Oc2c(O)cc([C@@H]3CC(=O)c4ccc(O)cc4O3)cc2C(O)C1O (stereo partly drawn)"
  SIGN QUALIFIER: "<"
  pIC50: 4.22
- MOLECULE: "CC1(C)C(C2CC(=O)c3ccccc3O2)=C(O)C(O)=C2OC(O)C(O)C(O)C21 (stereo not drawn)"
  SIGN QUALIFIER: "<"
  pIC50: 4.22
- MOLECULE: "COc1cc([C@@H]2CC(=O)c3c(O)cc(O)cc3O2)cc2c1OC(C)(CO)C=C2 (stereo partly drawn)"
  SIGN QUALIFIER: "="
  pIC50: 4.75
- MOLECULE: "CC(C)=CCc1cc([C@@H]2CC(=O)c3c(O)cc(O)cc3O2)cc2c1OC(C)(C)C(O)C2O (stereo partly drawn)"
  SIGN QUALIFIER: "="
  pIC50: 4.72
- MOLECULE: "COc1c(/C=C/C(C)(C)O)cc([C@@H]2CC(=O)c3c(O)cc(O)cc3O2)cc1CC=C(C)C"
  SIGN QUALIFIER: "="
  pIC50: 4.72
